test: Cytotoxicity against human HeLa cells assessed as concentration required to cause microscopically visible alternation of cell morphology; assay type: cell-based
Collected MCC values appear next to each entry.
resultType: MCC

>>> observedmeasurement("NC(=O)c1ncn([C@@H]2O[C@H](CO)[C@@H](O)[C@H]2O)n1")
"> 250 µM"
>>> observedmeasurement("O=c1[nH]c(=O)n(C2C=CC(O)C2)cc1-c1cccs1 (centres undefined)")
"20 µM"
>>> observedmeasurement("O=c1[nH]c(=O)n(C2C=CC(O)C2)cc1-c1cncs1 (centres undefined)")
"> 100 µM"
>>> observedmeasurement("O=c1[nH]c(=O)n(C2C=CC(O)C2)cc1-c1ccco1 (centres undefined)")
"> 100 µM"

----------
test system: Vaccinia virus; assay: Antiviral activity against Vaccinia virus infected in human HEL cells assessed as inhibition of virus-induced cytopathicity; assay type: functional, organism-based; settings: Orthopoxvirus vaccinia
pEC50: −log10 of the molar value.
resultType: pEC50

>>> observedmeasurement("O=c1[nH]c(=O)n(C2C=CC(O)C2)cc1-c1ccco1 (centres undefined)")
"< 4.00"
>>> observedmeasurement("NC(=O)c1ncn([C@@H]2O[C@H](CO)[C@@H](O)[C@H]2O)n1")
"< 3.60"
>>> observedmeasurement("O=c1[nH]c(=O)n(C2C=CC(O)C2)cc1-c1cncs1 (centres undefined)")
"< 4.00"
>>> observedmeasurement("O=c1[nH]c(=O)n(C2C=CC(O)C2)cc1-c1cccs1 (centres undefined)")
"< 5.40"

----------
test system: Human alphaherpesvirus 3; test: Antiviral activity against wild type Varicella-zoster virus Oka infected in human HEL cells assessed as reduction of viral plaque formation after 5 days; type: functional, organism-based; conditions: Human alphaherpesvirus 3, strain Oka vaccine, 120 h
Examples of molecules with documented EC50 follow.
resultType: EC50 (µM)

>>> observedmeasurement("O=c1[nH]c(=O)n(C2C=CC(O)C2)cc1-c1cncs1 (configuration not stated)")
47
>>> observedmeasurement("O=c1[nH]c(=O)n(C2C=CC(O)C2)cc1-c1cccs1 (configuration not stated)")
1.6

----------
experiment: Cytotoxicity against human HEL cells assessed as concentration required to cause microscopically visible alternation of cell morphology; type: cell-based
# MCC per entry
resultType: MCC

>>> observedmeasurement("O=c1[nH]c(=O)n(C2C=CC(O)C2)cc1-c1ccco1 (centres undefined)")
"> 100 µM"
>>> observedmeasurement("O=c1[nH]c(=O)n(C2C=CC(O)C2)cc1-c1cccs1 (centres undefined)")
"≥ 4 µM"
>>> observedmeasurement("O=c1[nH]c(=O)n(C2C=CC(O)C2)cc1-c1cncs1 (centres undefined)")
"≥ 100 µM"
>>> observedmeasurement("NC(=O)c1ncn([C@@H]2O[C@H](CO)[C@@H](O)[C@H]2O)n1")
"> 250 µM"

----------
system: Human alphaherpesvirus 1; assay: Antiviral activity against Herpes simplex virus type 1 KOS infected in human HEL cells assessed as inhibition of virus-induced cytopathicity; format: functional, organism-based; conditions: Human alphaherpesvirus 1, KOS
pEC50: −log10 of the molar value.
pEC50 values for the compounds below.
resultType: pEC50

>>> observedmeasurement("O=c1[nH]c(=O)n(C2C=CC(O)C2)cc1-c1cncs1 (centres undefined)")
"< 4.00"
>>> observedmeasurement("O=c1[nH]c(=O)n(C2C=CC(O)C2)cc1-c1ccco1 (centres undefined)")
"< 4.00"
>>> observedmeasurement("O=c1[nH]c(=O)n(C2C=CC(O)C2)cc1-c1cccs1 (centres undefined)")
"< 5.40"
>>> observedmeasurement("NC(=O)c1ncn([C@@H]2O[C@H](CO)[C@@H](O)[C@H]2O)n1")
"< 3.60"
